experiment: Determination of the distribution coefficients (logD), n-octanol/PBS; assay type: physicochemical; conditions: n-octanol / PBS pH = 7.40, rt
Note to self: LogD under 2 means fulfilled, ties and anything higher get not fulfilled.

Worked examples follow.
| compound | classification |
| --- | --- |
| Cc1ccc(C(C)C)cc1.F[P-](F)(F)(F)(F)F.OCC1OC(c2noc(-c3ccccn3)n2)C(O)C(O)C1O.[Cl][Ru+] (mixture of isomers) | fulfilled |
| Cc1c(C)c(C)[c-](C)c1C.F[P-](F)(F)(F)(F)F.O=C(OCC1OC(c2noc(-c3ccccn3)n2)C(OC(=O)c2ccccc2)C(OC(=O)c2ccccc2)C1OC(=O)c1ccccc1)c1ccccc1.[Cl][Ir+2] (mixture of isomers) | not fulfilled |
| Cc1ccc(C(C)C)cc1.F[P-](F)(F)(F)(F)F.O=C(OCC1OC(c2nnc(-c3ccccn3)o2)C(OC(=O)c2ccccc2)C(OC(=O)c2ccccc2)C1OC(=O)c1ccccc1)c1ccccc1.[Cl][Os+] (mixture of isomers) [Os-3] | not fulfilled |
| Cc1c(C)c(C)[c-](C)c1C.F[P-](F)(F)(F)(F)F.O=C(OCC1OC(n2cc(-c3ccccn3)nn2)C(OC(=O)c2ccccc2)C(OC(=O)c2ccccc2)C1OC(=O)c1ccccc1)c1ccccc1.[Cl][Rh+2] (mixture of isomers) | fulfilled |
| Cc1c(C)c(C)[c-](C)c1C.F[P-](F)(F)(F)(F)F.O=C(OC1COC(c2nnc(-c3ccccn3)o2)C(OC(=O)c2ccccc2)C1OC(=O)c1ccccc1)c1ccccc1.[Cl][Ir+2] (mixture of isomers) | fulfilled |
| Cc1c(C)c(C)[c-](C)c1C.F[P-](F)(F)(F)(F)F.OCC1OC(c2noc(-c3ccccn3)n2)C(O)C(O)C1O.[Cl][Ir+2] (mixture of isomers) | fulfilled |

*Q* Is 2 strictly greater than the compound's reported LogD? compound: Cc1c(C)c(C)[c-](C)c1C.F[P-](F)(F)(F)(F)F.O=C(OCC1OC(c2nnc(-c3ccccn3)o2)C(OC(=O)c2ccccc2)C(OC(=O)c2ccccc2)C1OC(=O)c1ccccc1)c1ccccc1.[Cl][Rh+2] (mixture of isomers) [Rh-3]
*A* fulfilled
